Source of measurements: patent US20060079453A1

- STUDY SYSTEM: HLA-DR DRB4*0101 (DR53) (Homo sapiens, UniProt P01903+P13762, G164S)
- EXPERIMENT NOTES: biochemical
- Assay type: binding
- RUN PARAMETERS: DRB4 *0101
This section presents compounds with their documented IC50 values.
A complete answer gives the number and then names the unit.

{"TEST SMILES": "CC[C@H](C)[C@H](NC(=O)[C@H](CO)NC(=O)[C@H](CO)NC(=O)[C@H](CC(=O)O)NC(=O)[C@H](C)NC(=O)[C@H](CC(N)=O)NC(=O)[C@@H](NC(=O)[C@H](Cc1ccc(O)cc1)NC(=O)[C@H](C)NC(=O)[C@@H](N)C(C)C)[C@@H](C)CC)C(=O)N[C@@H](CCC(=O)O)C(=O)NCC(=O)N[C@@H](CC(N)=O)C(=O)N[C@@H](Cc1ccc(O)cc1)C(=O)N[C@H](C(=O)O)[C@@H](C)O", "IC50": "841 nM"}
{"TEST SMILES": "CC[C@H](C)[C@H](NC(=O)[C@@H](NC(=O)[C@@H]1CCCN1C(=O)CNC(=O)[C@@H](NC(=O)[C@H](CC(C)C)NC(=O)[C@H](CCC(=O)O)NC(=O)[C@H](C)NC(=O)[C@@H](N)Cc1ccccc1)C(C)C)C(C)C)C(=O)N1CCC[C@H]1C(=O)N[C@@H](CCC(N)=O)C(=O)N[C@@H](CC(=O)O)C(=O)N[C@@H](Cc1c[nH]c2ccccc12)C(=O)N[C@@H](CO)C(=O)N[C@H](C(=O)O)[C@@H](C)O", "IC50": "983 nM"}

# ---- query compound ----
Item CSCC[C@H](NC(=O)[C@H](CC(C)C)NC(=O)[C@H](CC(=O)O)NC(=O)[C@@H](N)Cc1c[nH]cn1)C(=O)N[C@@H](CC(C)C)C(=O)N[C@@H](CC(C)C)C(=O)N[C@@H](CCCNC(=N)N)C(=O)N[C@@H](CC(C)C)C(=O)N[C@@H](CO)C(=O)N[C@@H](CCC(=O)O)C(=O)N1CCC[C@H]1C(=O)N[C@@H](C)C(=O)N[C@@H](CCC(=O)O)C(=O)N[C@@H](CC(C)C)C(=O)N[C@H](C(=O)O)[C@@H](C)O with HLA-DR DRB4*0101 (DR53) (Homo sapiens, UniProt P01903+P13762, G164S) - IC50?
45 nM

###

# key: entry, value: pIC50
- STUDY SYSTEM: HLA-DR DRB1*0802 (DR8) (Homo sapiens, UniProt P01903+P01911, A100R/A103L/A169T/F76Y/H45Y/I96F/K41T/L162R/M171V/P40S/Q125H/Q178H/Q39Y/Q99D/R218S/R42G/S66Y/V115G/W38E)
- EXPERIMENT NOTES: biochemical
- Assay type: binding
pIC50 is a log-scale quantity: -log10 of the concentration expressed in molar.

{"TEST SMILES": "CC[C@H](C)[C@H](NC(=O)[C@@H](NC(=O)[C@@H](N)CO)C(C)C)C(=O)N[C@@H](CC(C)C)C(=O)N[C@@H](CC(C)C)C(=O)NCC(=O)N[C@@H](CCCNC(=N)N)C(=O)N[C@@H](Cc1c[nH]cn1)C(=O)N[C@@H](CO)C(=O)N[C@@H](CC(C)C)C(=O)N[C@@H](Cc1ccccc1)C(=O)N[C@@H](Cc1c[nH]cn1)C(=O)N1CCC[C@H]1C(=O)N[C@@H](CCC(=O)O)C(=O)N[C@@H](CC(=O)O)C(=O)O", "ASSAY VALUE": 6.30}

I'd like to know its pIC50. The compound in question is CSCC[C@H](NC(=O)CNC(=O)CNC(=O)[C@H](CCCNC(=N)N)NC(=O)[C@@H](NC(=O)[C@H](CCC(N)=O)NC(=O)[C@H](C)NC(=O)[C@@H](NC(=O)[C@@H](NC(=O)[C@H](CC(C)C)NC(=O)[C@H](Cc1c[nH]cn1)NC(=O)[C@H](Cc1ccc(O)cc1)NC(=O)[C@@H](N)CCCCN)[C@@H](C)O)C(C)C)C(C)C)C(=O)N[C@H](C(=O)N[C@@H](Cc1ccccc1)C(=O)O)C(C)C
5.82

###

- STUDY SYSTEM: HLA-DR DRB3*0101 (DR52) (Homo sapiens, UniProt P01903+P79483)
- EXPERIMENT NOTES: biochemical
- Assay type: binding
MEASUREMENT KIND: pIC50
# pIC50 is unitless: minus log10 of the molar concentration; print number only

Use these answered entries as a reference point.
{"TEST SMILES": "CC[C@H](C)[C@H](NC(=O)[C@@H](NC(=O)[C@H](Cc1c[nH]cn1)NC(=O)[C@@H](N)CC(C)C)C(C)C)C(=O)N[C@@H](CO)C(=O)N[C@@H](CC(N)=O)C(=O)N[C@@H](CC(=O)O)C(=O)N[C@H](C(=O)N[C@@H](CS)C(=O)N[C@@H](C)C(=O)N[C@@H](CCC(N)=O)C(=O)N[C@H](C(=O)N[C@@H](Cc1c[nH]cn1)C(=O)N1CCC[C@H]1C(=O)N[C@@H](CCC(N)=O)C(=O)O)C(C)C)C(C)C", "MEASUREMENT KIND": "pIC50", "ASSAY VALUE": 5.72}
{"TEST SMILES": "CC[C@H](C)[C@H](NC(=O)CNC(=O)[C@H](CCCNC(=N)N)NC(=O)[C@H](CCCNC(=N)N)NC(=O)[C@H](Cc1ccc(O)cc1)NC(=O)[C@H](C)NC(=O)[C@H](Cc1ccc(O)cc1)NC(=O)[C@@H](N)CCC(=O)O)C(=O)N[C@@H](C)C(=O)N[C@@H](CCC(=O)O)C(=O)N[C@@H](C)C(=O)N[C@H](C(=O)NCC(=O)N[C@@H](CC(C)C)C(=O)N1CCC[C@H]1C(=O)O)C(C)C", "MEASUREMENT KIND": "pIC50", "ASSAY VALUE": 5.06}
{"TEST SMILES": "CC[C@H](C)[C@H](NC(=O)[C@H](CCC(N)=O)NC(=O)[C@@H](N)CCCNC(=N)N)C(=O)N[C@@H](Cc1ccc(O)cc1)C(=O)N[C@H](C(=O)N[C@@H](C)C(=O)N[C@@H](C)C(=O)N[C@@H](Cc1ccccc1)C(=O)N[C@H](C(=O)N[C@H](C(=O)N[C@@H](CCC(N)=O)C(=O)N[C@@H](C)C(=O)N[C@@H](C)C(=O)N[C@@H](C)C(=O)N[C@@H](CCC(=O)O)C(=O)O)C(C)C)[C@@H](C)O)C(C)C", "MEASUREMENT KIND": "pIC50", "ASSAY VALUE": 5.17}

Alright, here's another molecule for you.
What measured pIC50 is associated with CC[C@H](C)[C@H](NC(=O)[C@H](CO)NC(=O)[C@H](CO)NC(=O)[C@H](CC(=O)O)NC(=O)[C@H](C)NC(=O)[C@H](CC(N)=O)NC(=O)[C@@H](NC(=O)[C@H](Cc1ccc(O)cc1)NC(=O)[C@H](C)NC(=O)[C@@H](N)C(C)C)[C@@H](C)CC)C(=O)N[C@@H](CCC(=O)O)C(=O)NCC(=O)N[C@@H](CC(N)=O)C(=O)N[C@@H](Cc1ccc(O)cc1)C(=O)N[C@H](C(=O)O)[C@@H](C)O on HLA-DR DRB3*0101 (DR52) (Homo sapiens, UniProt P01903+P79483)?
6.33

###

- STUDY SYSTEM: HLA-DR DRB1*0405 (DR4) (Homo sapiens, UniProt P01903+P01911, A100R/A169T/D86S/F76Y/I96L/K127E/L162R/M171V/N62H/P40V/Q125Y/R42H/S133A/S149N/S66Y/V115G/V209L/W38E)
- EXPERIMENT NOTES: biochemical
- Assay type: binding
# pIC50 listing for each entry below
Convention used: pIC50 is expressed as -log10 of the molar concentration.

{"TEST SMILES": "CC[C@H](C)[C@H](N)C(=O)N[C@@H](C)C(=O)NCC(=O)N[C@@H](CC(C)C)C(=O)N[C@@H](Cc1ccccc1)C(=O)N[C@@H](CC(C)C)C(=O)N[C@H](C(=O)N[C@H](C(=O)N[C@@H](CCC(=O)O)C(=O)N[C@@H](C)C(=O)N[C@H](C(=O)N[C@H](C(=O)N[C@@H](C)C(=O)N[C@@H](CC(=O)O)C(=O)N[C@@H](CCCCN)C(=O)O)C(C)C)C(C)C)[C@@H](C)O)[C@@H](C)O", "pIC50": 7.17}
{"TEST SMILES": "CC[C@H](C)[C@H](NC(=O)[C@H](CCCCN)NC(=O)[C@H](CC(N)=O)NC(=O)[C@@H](NC(=O)[C@@H](NC(=O)[C@H](CC(C)C)NC(=O)[C@@H](NC(=O)[C@H](CO)NC(=O)[C@H](CC(C)C)NC(=O)[C@H](C)NC(=O)[C@H](CCC(=O)O)NC(=O)CN)[C@@H](C)O)C(C)C)C(C)C)C(=O)N[C@@H](CCCNC(=N)N)C(=O)NCC(=O)N[C@H](C(=O)O)[C@@H](C)O", "pIC50": 4.52}

# input for lookup
For the compound CC[C@H](C)[C@H](NC(=O)[C@H](CCCCN)NC(=O)[C@H](CC(N)=O)NC(=O)[C@@H](NC(=O)[C@@H](NC(=O)[C@H](CC(C)C)NC(=O)[C@@H](NC(=O)[C@H](CO)NC(=O)[C@H](CC(C)C)NC(=O)[C@H](C)N)[C@@H](C)O)C(C)C)C(C)C)C(=O)N[C@@H](CCCNC(=N)N)C(=O)NCC(=O)N[C@H](C(=O)N[C@@H](Cc1ccccc1)C(=O)N[C@@H](CCCCN)C(=O)O)[C@@H](C)O , what pIC50 is on record?
5.44
